procedure details: in vitro
test conditions: human, microsomes

>  <structure smiles string>
Cc1cc(-c2cnc3cc(-c4ccc(N5CCNCC5)cc4)ccn23)c2cc(F)ccc2n1

>  <microsomal CLint>
16 µL/min/mg

$$$$
>  <structure smiles string>
Cc1cc(-c2cnc3cc(-c4ccc(N5CCNCC5)cc4)ccn23)c2ccccc2n1

>  <microsomal CLint>
24 µL/min/mg

$$$$
>  <structure smiles string>
Cc1cc(-c2cnc3cc(-c4ccc(N5CCNCC5)cc4)ccn23)c2cc(F)cc(F)c2n1

>  <microsomal CLint>
19 µL/min/mg

$$$$

----------
system name: AMPK
procedure details: Selectivity Ki, AMPK

>  <structure smiles string>
COc1ccc2nc(C)cc(-c3cnc4cc(-c5ccc(N6CCN(C(C)=O)CC6)cc5)ccn34)c2c1

>  <system name>
AMPK

>  <Ki, µM>
8.7

$$$$
